src = patent US20130210846A1

Listed here: items and their measured IC50.
- Test system: 786-O
- protocol: Proliferation assay 786-O
- Assay type: cell-based
- assay_conditions: Homo sapiens, 786-0, 96 h, kidney carcinoma, 4 days, crystal violet
Express the result in nM but write the number alone.

compound	scale_unit	recorded_measurement
C[C@@H](O)[C@@H](C)Oc1nc(Nc2ccc(S(=N)(=O)C3CC3)cc2)ncc1C(F)(F)F (mixture of isomers)	nM	20
C[C@@H](O)[C@@H](C)Nc1nc(Nc2ccc(S(=N)(=O)C3CC3)cc2)ncc1C(F)(F)F (mixture of isomers)	nM	30

--- query ---
Exercise: What value of IC50 has been reported for the following compound? C[C@@H](O)[C@@H](C)Oc1nc(Nc2ccc(S(C)(=N)=O)cc2)ncc1C(F)(F)F (single isomer, unassigned)
Solution: 22
